Assignment: determine reported Average of S/B for the given binders.
biological target: T1, recombinant purified FRα (ECL assay calibrator) (human, UniProt P15328 25-234); test: ECL sandwich on FRα, signal to background; capture 2F11.F8; binder = detection Ab
T1 construct: Calibrator of the ECL sandwich assays; also called FRα calibrator; FRα standard
T1 sequence (P15328 25-234 limits assumed): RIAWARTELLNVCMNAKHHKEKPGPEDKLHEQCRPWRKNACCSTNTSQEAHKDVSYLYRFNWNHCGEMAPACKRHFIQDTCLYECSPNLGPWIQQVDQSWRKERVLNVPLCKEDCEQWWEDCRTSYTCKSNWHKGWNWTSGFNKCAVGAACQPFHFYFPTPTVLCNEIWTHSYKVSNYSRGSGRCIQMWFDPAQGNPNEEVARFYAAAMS
Numbers only.

Recorded results for 3 binders are shown here.
Monoclonal antibody 1D2.D8.G10 (antibody, mouse IgG1, V domains shown, Murine IgG1 kappa from hybridoma; also called 1D2.D8.G0; ATCC PTA-123098) VH: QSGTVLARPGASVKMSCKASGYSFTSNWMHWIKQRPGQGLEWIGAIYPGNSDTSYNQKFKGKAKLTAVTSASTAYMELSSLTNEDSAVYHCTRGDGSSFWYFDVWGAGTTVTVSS VL: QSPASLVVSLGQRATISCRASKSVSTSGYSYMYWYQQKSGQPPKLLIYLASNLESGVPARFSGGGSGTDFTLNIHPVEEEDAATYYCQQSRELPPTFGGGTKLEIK
1
Monoclonal antibody 1A8.G11.E7 (antibody, mouse IgG1, V domains shown, Murine IgG1 kappa from hybridoma; also called ATCC PTA-123100) VH: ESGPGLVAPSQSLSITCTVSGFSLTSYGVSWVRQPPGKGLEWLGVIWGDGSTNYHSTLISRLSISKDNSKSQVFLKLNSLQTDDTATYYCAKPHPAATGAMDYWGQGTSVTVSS VL: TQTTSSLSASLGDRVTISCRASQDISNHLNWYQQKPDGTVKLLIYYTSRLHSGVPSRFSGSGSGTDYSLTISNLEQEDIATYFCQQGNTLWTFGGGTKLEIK
1
Monoclonal antibody 19D4.B7 (antibody, mouse IgG2a, V domains shown, SULFO-TAG conjugated when used as detection antibody in the ECL assay; also called ATCC PTA-11884) VH: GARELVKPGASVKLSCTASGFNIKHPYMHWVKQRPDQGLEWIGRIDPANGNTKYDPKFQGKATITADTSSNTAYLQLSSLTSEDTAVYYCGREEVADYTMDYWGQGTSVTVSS VL: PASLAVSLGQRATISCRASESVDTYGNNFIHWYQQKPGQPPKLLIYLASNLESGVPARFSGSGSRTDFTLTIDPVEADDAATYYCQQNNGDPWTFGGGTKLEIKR
17

Please state Average of S/B for every binder in the list that follows.
1. Monoclonal antibody 6A2.G7 (antibody, mouse IgG1, V domains shown, Murine IgG1 kappa from hybridoma; also called ATCC PTA-123093) VH: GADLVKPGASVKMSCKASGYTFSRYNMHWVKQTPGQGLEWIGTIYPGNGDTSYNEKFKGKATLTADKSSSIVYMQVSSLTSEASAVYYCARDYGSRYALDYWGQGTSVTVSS VL: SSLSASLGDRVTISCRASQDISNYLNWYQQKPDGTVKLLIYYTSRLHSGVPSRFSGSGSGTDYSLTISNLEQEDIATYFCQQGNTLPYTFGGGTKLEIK
2. Monoclonal antibody 24H8.F3 (antibody, mouse IgG1, V domains shown, Murine IgG1 kappa from hybridoma; also called ATCC PTA-123097) VH: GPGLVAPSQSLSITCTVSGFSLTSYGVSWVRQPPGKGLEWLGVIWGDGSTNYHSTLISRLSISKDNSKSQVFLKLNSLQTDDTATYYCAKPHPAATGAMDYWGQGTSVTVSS VL: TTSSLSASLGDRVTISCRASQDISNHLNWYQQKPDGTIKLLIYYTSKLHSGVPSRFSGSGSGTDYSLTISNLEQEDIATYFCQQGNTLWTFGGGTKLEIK

[5, 1]
